The reported measurements were obtained from PubChem BioAssay AID2501.

Assay: counter assay for TAg ATPase ADP read-out – biochemical, ADP-Hunter, fluorescence, counter-screen (AID 2501);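 also: purified T antigen ATPase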
Settings: series mostly up to 100 µM
About 1,200 (55%) of roughly 2,200 compounds were called active. The limit is not given here; nearly all actives have IC50 up to about 92 µM. So high a share suggests a set chosen from earlier hits. Some of the results follow.
Please answer using one outcome listed in active, inactive

INPUT: Kindly provide the recorded test outcome for the following molecule: O=C1NC(=Nc2ccc(O)cc2)S/C1=C/c1ccco1
OUTPUT: active

###

Assay: counter assay for TAg ATPase ADP read-out – biochemical, ADP-Hunter, fluorescence, counter-screen (AID 2501);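 also: purified T antigen ATPase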
Details: series mostly up to 100 µM
Screen size: about 2,200 compounds; about 1,200 (55%) were called active. No cut-off is given here; in the data, nearly all actives have IC50 up to about 92 µM. So high a share suggests a set chosen from earlier hits. The list shows a part of the results.
Reply using exactly one outcome from 1 (yes) for active, 0 (no) for inactive

[[record]]
compound = "CC(=O)c1cccc(S(=O)(=O)N2CCCC(c3nc(-c4ccc(C)o4)no3)C2)c1 (stereo unspecified)"
label = "0 (no)"

[[record]]
compound = "Cc1ccc(C)c(S(=O)(=O)N2CCCCC2CCNC(=O)C(=O)NCc2ccco2)c1 (stereo unspecified)"
label = "0 (no)"

[[record]]
compound = "Cc1cc(C)c2nc(-c3ccco3)cc(C(=O)O)c2c1"
label = "0 (no)"

[[record]]
compound = "CC(C)C(C(=O)O)N1C(=O)/C(=C/C=C/c2ccco2)SC1=S (stereo unspecified)"
label = "0 (no)"


INPUT: # lookup: test call for COc1cc(/C=C2\SC(=S)N(C(C(=O)O)c3ccccc3)C2=O)ccc1O (stereo unspecified)
OUTPUT: 1 (yes)

INPUT: Name the outcome recorded for O=C(CCN1C(=O)c2ccccc2S1(=O)=O)NCc1ccco1 in the assay.
OUTPUT: 0 (no)

###

Experiment: counter assay for TAg ATPase ADP read-out – biochemical, ADP-Hunter, fluorescence, counter-screen (AID 2501);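 also: purified T antigen ATPase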
Settings: series mostly up to 100 µM
Out of some 2,200 compounds screened, about 1,200 (55%) were called active. No cut-off is given here; in the data, nearly all actives have IC50 up to about 92 µM. The set was probably picked from earlier hits. Some of the results follow.
Response enum: label 1 (active), label 0 (inactive)

Some solved entries appear below for comparison.
[[record]]
compound = "CCN(CC)CCCCN1c2ccccc2Sc2ccccc21"
label = "label 1"

[[record]]
compound = "COc1ccc(NCN2C(=O)C3C4C=CC(C4)C3C2=O)cc1 (configuration not stated)"
label = "label 1"

[[record]]
compound = "O=C(CCC1CCCCC1)Nc1ccccc1C(=O)N1CCOCC1"
label = "label 0"

[[record]]
compound = "O=C(c1ccc(CNS(=O)(=O)c2ccccc2)cc1)N1CCN(Cc2ccccc2)CC1"
label = "label 0"

[[record]]
compound = "Cc1c(N=C2C=C(Br)C(=O)C(Br)=C2)c(=O)n(-c2ccccc2)n1C"
label = "label 1"

[[record]]
compound = "C/C(Cl)=C\\Cn1c(N2CCCC2)nc2c1c(=O)[nH]c(=O)n2C"
label = "label 0"

[[record]]
compound = "COc1ccc(C(=O)CC(c2ccccc2)C2CCCCC2=O)cc1 (configuration not stated)"
label = "label 0"

[[record]]
compound = "COc1ccc(N2CCN(C(CNC(=O)C3CCCCC3)c3cccnc3)CC2)cc1 (configuration not stated)"
label = "label 1"

[[record]]
compound = "CCc1ccc2cccc3c2c1N=CN3C"
label = "label 1"

[[record]]
compound = "CC(=O)N1CCN(c2ccc(NCc3cccc4ccccc34)cc2)CC1"
label = "label 1"


INPUT: Can you look up the reported call for Oc1ccc(/C=C/c2cc(O)cc(O)c2)cc1 for me?
OUTPUT: label 1

INPUT: Outcome? Cc1cc(=O)c2ccccc2s1
OUTPUT: label 0

INPUT: Outcome logged for COc1ccc(-c2c(C)nn3c(-c4ccccc4)cc(C)nc23)cc1 in this assay:
OUTPUT: label 0

INPUT: Would you mind telling me which call this test gave O=C1OCC(CO)(CO)N=C1NNc1ccccc1Cl ?
OUTPUT: label 1

INPUT: Called result for CC(/C=C/c1ccc(O)cc1)=N/O
OUTPUT: label 1

INPUT: What was the test verdict on CC[C@H](C)[C@H](NC(=O)c1ccccc1)C(=O)Nc1ccc(S(=O)(=O)Nc2cc(C)nc(C)n2)cc1 ?
OUTPUT: label 0
